Experiment: Partition coefficient between octanol and phosphate buffer (pH 7.4) was observed for the compound at pH 7.4.
Type: physicochemical
Recorded Endpoint: logD

[Q] Dear colleague, I am looking for the recorded logD of the following compound: CNC(=O)OCc1c2c(n3c1C(OC(C)=O)CC3)C(=O)C(Br)=C(N)C2=O (stereo unspecified)
[A] 1.15
